MEASUREMENT TYPE: IC50

Ask | Quote IC50 with test system Human Thrombin (Homo sapiens) for CC(C)(C)[C@H](NC(=O)C(F)(F)F)C(=O)N1C[C@H]2[C@@H]([C@H]1C(=O)N[C@H](C#N)C[C@@H]1CCNC1=O)C2(C)C [compound 6]
Reply | > 100 µM

----------
pIC50: −log10 of the molar value.
MEASUREMENT TYPE: pIC50

Ask | Look up Bovine Chymotrypsin (Bos taurus) data: pIC50 of `CC(C)(C)[C@H](NC(=O)C(F)(F)F)C(=O)N1C[C@H]2[C@@H]([C@H]1C(=O)N[C@H](C#N)C[C@@H]1CCNC1=O)C2(C)C` , then report it.
Reply | < 4.00
